Data origin: the antibiotic and cytotoxicity screens of Wong et al. (2023)

System: S. aureus RN4220
Assay: growth inhibition call (relative growth <= 0.2)
Conditions Used: 50 µM
In all, about 39,000 compounds went through this assay and about 500 (1.3%) were called active. The sample as a whole holds a higher share of actives than the screen did.
Just give me one of these, please: true for active, false for inactive

Examples with answers:
{"Compound": "COC(=O)c1c2oc(c1C(=O)OC)C(=O)N[C@H](Cc1ccccc1)Cn1cc(nn1)[C@@H](Cc1ccccc1)NC(=O)N[C@@H](COC(=O)NCCCCCC(=O)NO)CC2", "Category": "false"}
{"Compound": "CC(=O)OCC1=C(C(=O)[O-])N2C(=O)C(NC(=O)CSc3ccncc3)C2SC1.[Na+] (stereo not drawn)", "Category": "true"}

Hi, do you know how `Cn1c(=O)c2c(nc(SCSc3nc4c(c(=O)n(C)c(=O)n4C)n3C)n2C)n(C)c1=O` came out in this test?
false

Hi, do you know how `CO[C@@H]1CN(C)C(=O)c2cc(NS(=O)(=O)c3ccccc3C)ccc2OC[C@@H](C)N(S(C)(=O)=O)C[C@H]1C` came out in this test?
false

Hi, do you know how `C[C@H]1CN([C@@H](C)CO)C(=O)c2cc(NC(=O)Nc3cccc4ccccc34)ccc2O[C@@H]1CN(C)Cc1ccc(-c2ccccc2)cc1` came out in this test?
false

Hi, do you know how `C[C@@H]1CCCCO[C@H](CN(C)CC2CC2)[C@H](C)CN([C@H](C)CO)C(=O)c2cc(NC(=O)Nc3ccc(C(F)(F)F)cc3)ccc2O1` came out in this test?
true

Hi, do you know how `CS(=O)(=O)N1[C@@H]2c3ccc(-c4ccccc4)c(=O)n3C[C@H]1[C@H](CO)[C@H]2C(=O)NCC1CC1` came out in this test?
false

Hi, do you know how `C[C@H](CO)N1C[C@H](C)[C@H](CN(C)CC2CCCCC2)Oc2ccc(NC(=O)Nc3ccc(C(F)(F)F)cc3)cc2C1=O` came out in this test?
true
